Molecular target: Cathepsin B (Homo sapiens)
Test: Kinetic assay: inhibition of Cathepsin B
Assay type: biochemical
Conditions: Table IV
pKi: −log10 of the molar value. Where a SMILES comes first, the peptide text is derived from it. The star is where a group is joined. Cbz = O=C(OCc1ccccc1)*
Each entry below lists one item and its recorded pKi value.

| MOLECULE | pKi |
| --- | --- |
| CC(C)C[C@H](NC(=O)[C@H](Cc1cccc2ccccc12)NS(=O)(=O)c1cccc2cccnc12)B(O)O [MG-296] | 5.40 |
| CC(=O)N[C@@H](CC(C)C)C(=O)N[C@@H](CC(C)C)C(=O)N[C@H](C=O)CC(C)C [MG-154, reference compound] (Ac-Leu-Leu-Leu-aldehyde) | 8.30 |
| CC(C)C[C@H](NC(=O)[C@H](CC(C)C)NC(=O)[C@H](CC(C)C)NC(=O)OCc1ccccc1)B(O)O [MG-262] | 5.21 |
| CC(C)C[C@H](NC(=O)[C@H](Cc1cccc2ccccc12)NC(=O)N1CCOCC1)B(O)O [MG-273] | 3.70 |
| CC(C)C[C@H](NC(=O)[C@H](Cc1ccccc1)NC(=O)N1CCOCC1)B(O)O [MG-309] | 3.88 |
| CC(C)CC(C=O)NC(=O)C(CC(C)C)NC(=O)C(Cc1c[nH]c2ccccc12)NC(=O)OCc1ccccc1 (stereo not drawn) [MG-191, reference compound] (Cbz-Trp-Leu-Leu-aldehyde; configuration not given here) | 9.27 |

* * *

Each entry below lists one item and its recorded pKi value.
Molecular target: SDS-activated 20S proteasome from rabbit muscle (Oryctolagus cuniculus, UniProt G1SU71+G1T4Q9)
Experiment: Kinetic assay: inhibition of the 20S proteasome
Assay type: biochemical
Conditions: Table II; SDS-activated 20S proteasome from rabbit muscle, substrate Suc-LLVY-AMC
pKi: −log10 of the molar value.

| COMPOUND | pKi |
| --- | --- |
| CC(C)C[C@H](NC(=O)[C@H](Cc1ccccc1)NC(=O)c1cccnc1)B(O)O | 9.60 |
| CC(C)CC(NC(=O)C(Cc1ccc2ccccc2c1)NC(=O)N1CCOCC1)B(O)O (centres unmarked) | 9.14 |
| CC(=O)N[C@@H](CC(C)C)C(=O)N[C@@H](CC(C)C)C(=O)N[C@@H](CC(C)C)B(O)O | 9.34 |
| CC(C)C[C@H](NC(=O)[C@H](Cc1cccc2ccccc12)NC(=O)OCc1ccccc1)B1O[C@@H]2C[C@@H]3C[C@@H](C3(C)C)[C@]2(C)O1 | 10.00 |
| CC(C)C[C@H](NC(=O)[C@H](Cc1ccccn1)NC(=O)C1CCCCC1)B(O)O | 8.96 |
| CC(C)C[C@H](NC(=O)[C@H](CCc1ccccc1)NC(=O)c1ccc2ccccc2n1)B(O)O | 8.55 |
| CC(C)C[C@H](NC(=O)[C@H](Cc1cccnc1)NS(C)(=O)=O)B(O)O | 8.20 |
| CC(C)C[C@H](NC(=O)[C@H](Cc1cccc2ccccc12)NC(=O)N1CCOCC1)B(O)O | 9.74 |

* * *

Biological target: SDS-activated 20S proteasome from rabbit muscle (Oryctolagus cuniculus, UniProt G1SU71+G1T4Q9)
Test: Kinetic assay: inhibition of the 20S proteasome
Format: biochemical
Details: Table II; SDS-activated 20S proteasome from rabbit muscle, substrate Suc-LLVY-AMC
Each entry below lists one item and its recorded Ki value.

| RECORD_SMILES | Ki |
| --- | --- |
| CC(C)C[C@H](NC(=O)[C@H](Cc1ccccc1)NS(=O)(=O)c1cccc2cccnc12)B(O)O | 4.4 nM |
| CC(C)C[C@H](NC(=O)[C@@H]1C[C@@H](OCc2ccc3ccccc3n2)CN1)B(O)O | 23 nM |
| CC(C)C[C@H](NC(=O)[C@@H]1CCN1)B(O)O | 24.2 nM |
| CC(C)C[C@H](NC(=O)[C@H](Cc1cccc2ccccc12)NC(=O)c1cnc2ccccc2n1)B(O)O | 0.14 nM |

* * *

Molecular target: Human Pancreatic Chymotrypsin
Assay: Kinetic assay: inhibition of Human Pancreatic Chymotrypsin
Details: Table V
pKi: −log10 of the molar value.

| RECORD_SMILES | pKi |
| --- | --- |
| CC(C)C[C@H](NC(=O)[C@H](Cc1cccc2ccccc12)NC(=O)OCc1ccccc1)B1O[C@@H]2C[C@@H]3C[C@@H](C3(C)C)[C@]2(C)O1 | 5.64 |
| CC(C)C[C@H](NC(=O)[C@H](CC(C)C)NC(=O)[C@H](CC(C)C)NC(=O)OCc1ccccc1)B(O)O | 8.15 |

* * *

Molecular target: SDS-activated 20S proteasome from rabbit muscle (Oryctolagus cuniculus, UniProt G1SU71+G1T4Q9)
Assay: Kinetic assay: inhibition of the 20S proteasome
Type: biochemical
Details: Table IV
pKi: −log10 of the molar value. Where a SMILES comes first, the peptide text is derived from it. The star is where a group is joined. Cbz = O=C(OCc1ccccc1)*

| MOLECULE | pKi |
| --- | --- |
| CC(C)C[C@H](NC(=O)[C@H](Cc1ccccc1)NC(=O)N1CCOCC1)B(O)O | 9.09 |
| CC(C)CC(C=O)NC(=O)C(CC(C)C)NC(=O)C(Cc1c[nH]c2ccccc12)NC(=O)OCc1ccccc1 (stereo not drawn) [MG-191, reference compound] (Cbz-Trp-Leu-Leu-aldehyde; configuration not given here) | 9.42 |
| CC(C)C[C@H](NC(=O)[C@H](Cc1cccc2ccccc12)NS(=O)(=O)c1cccc2cccnc12)B(O)O | 8.77 |
| CC(=O)N[C@@H](CC(C)C)C(=O)N[C@@H](CC(C)C)C(=O)N[C@H](C=O)CC(C)C [MG-154, reference compound] (Ac-Leu-Leu-Leu-aldehyde) | 7.18 |
| CC(C)C[C@H](NC(=O)[C@H](CC(C)C)NC(=O)[C@H](CC(C)C)NC(=O)OCc1ccccc1)B(O)O | 10.46 |
| CC(C)C[C@H](NC(=O)[C@H](Cc1cccc2ccccc12)NC(=O)N1CCOCC1)B(O)O | 9.74 |

Taken from patent US6465433B1.
